# assay.name: Effective concentration required to achieve 50% inhibition of HIV-1 LAI replication in human T4 lymphoblastoid CEM-SS cells.
measurement.label: EC50 (nM)

molecule: CCc1c(Sc2cc(C)cc(C)c2)n(CCCCC(=O)NCCCCNC(=O)CCc2cn(C3CC(N=[N+]=[N-])C(CO)O3)c(=O)[nH]c2=O)c(=O)[nH]c1=O (configuration not stated)
result.unit: nM
quantitative.result: 3300
//
molecule: CCc1c(Sc2cc(C)cc(C)c2)n(CCCCC(=O)OC)c(=O)[nH]c1=O
result.unit: nM
quantitative.result: 25
//
molecule: CCc1c(C)[nH]c(=O)c(NC(=O)CNC(=O)CN)c1Cc1cc(C)cc(C)c1
result.unit: nM
quantitative.result: 720

a: [N-]=[N+]=NC1CC(n2cc(CCC(=O)NCCCCCCCCCCN)c(=O)[nH]c2=O)OC1CO (configuration not stated)
b: CCc1c(C)[nH]c(=O)c(N)c1Cc1cc(C)cc(C)c1
Q) Pick one: a or b . Which has the bigger EC50 number? Please respond with the label that marks your chosen entry.
A) a
(a: 20000 nM, b: 17 nM)
